# target: HLA-A*24:02 (human)
# method.description: UV peptide exchange + HLA class I ELISA
So I've got a bunch of binders here, and I need their Bindings% (of positive control) values.
One number for each entry, in %.

Check out these entries, answers already filled in.
{"columns": ["binder", "Bindings% (of positive control) (%)"],
 "data": [
  ["GYPALMPLY (modifications not checked) [p650-658]", 42.7],
  ["SFCGSPYSW (modifications not checked) [p167-175]", 84],
  ["VFADATPTGW (modifications not checked) [p697-706]", 40.4]
]}

Turning now to a further binder:
What value of Bindings% (of positive control) has been recorded for this entry: CGYPALMPLY (modifications not checked) [p649-658]
38.1

The values you see were collected from patent US20230242590A1.
